Target: human NLRP3 (Homo sapiens (Human), UniProt Q96P20)
Sequence (Q96P20 whole entry): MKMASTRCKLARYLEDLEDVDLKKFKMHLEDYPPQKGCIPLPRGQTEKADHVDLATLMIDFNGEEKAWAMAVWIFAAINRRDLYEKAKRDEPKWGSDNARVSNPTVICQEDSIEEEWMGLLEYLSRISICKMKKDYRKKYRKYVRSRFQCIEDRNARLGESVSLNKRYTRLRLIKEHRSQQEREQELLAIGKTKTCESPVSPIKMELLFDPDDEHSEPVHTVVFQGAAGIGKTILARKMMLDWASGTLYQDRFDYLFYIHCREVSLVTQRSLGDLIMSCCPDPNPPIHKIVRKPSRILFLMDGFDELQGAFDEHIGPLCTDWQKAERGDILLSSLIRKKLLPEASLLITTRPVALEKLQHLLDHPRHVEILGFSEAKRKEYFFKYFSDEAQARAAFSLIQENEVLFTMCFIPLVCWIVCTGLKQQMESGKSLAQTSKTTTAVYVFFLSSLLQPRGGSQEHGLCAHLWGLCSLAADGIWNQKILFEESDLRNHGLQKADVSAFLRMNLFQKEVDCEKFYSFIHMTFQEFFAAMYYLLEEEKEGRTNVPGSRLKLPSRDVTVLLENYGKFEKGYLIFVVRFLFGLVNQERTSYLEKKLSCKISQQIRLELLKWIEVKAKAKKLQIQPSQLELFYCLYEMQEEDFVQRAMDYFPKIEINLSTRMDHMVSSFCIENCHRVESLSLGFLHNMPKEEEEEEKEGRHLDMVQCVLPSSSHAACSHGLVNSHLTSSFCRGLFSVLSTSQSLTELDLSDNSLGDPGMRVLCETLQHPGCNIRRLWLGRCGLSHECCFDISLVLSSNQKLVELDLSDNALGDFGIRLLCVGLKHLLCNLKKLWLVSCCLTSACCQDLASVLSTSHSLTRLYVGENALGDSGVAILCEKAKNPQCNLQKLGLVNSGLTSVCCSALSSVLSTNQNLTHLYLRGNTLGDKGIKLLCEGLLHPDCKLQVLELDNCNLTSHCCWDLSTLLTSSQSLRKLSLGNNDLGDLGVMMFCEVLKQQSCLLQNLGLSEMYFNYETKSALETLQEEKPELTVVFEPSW
Assay: Scintillation Proximity (SPA) NLRP3 Assay: displacement of 3H-MCC950
Type: binding
Details: displacement of 3H-MCC950; read-out: SPA IC50
pIC50: −log10 of the molar value.
readout: pIC50

INSERT INTO results (compound, readout, measured_result) VALUES
  ('C[C@@H]1CCN(c2nnn[nH]2)C[C@H](NC(=O)C2(c3ccc(OC(F)F)cc3)CC2)C1 (single isomer, unassigned) [58A*]', 'pIC50', '> 6.00'),
  ('C[C@H]1CCN(c2nnn[nH]2)C[C@H](NC(=O)C2(c3ccc(Cl)cc3Cl)CC2)C1 (single isomer, unassigned) [55C*]', 'pIC50', '4.00 to 4.30'),
  ('C[C@@H]1CCN(c2nnn[nH]2)C[C@@H](NC(=O)C2(c3ccc(Cl)c(F)c3)CC2)C1 (single isomer, unassigned) [65B*]', 'pIC50', '4.30 to 5.00'),
  ('C[C@@H]1C[C@H](NC(=O)C2(c3ccc(C4CC4)cc3)CC2)[C@H]2CC[C@@H]1N2c1nnn[nH]1 [81B*]', 'pIC50', '4.00 to 4.30');

====

Molecular target: human NLRP3 (Homo sapiens (Human), UniProt Q96P20)
Assay: Scintillation Proximity (SPA) NLRP3 Assay: displacement of 3H-MCC950
Format: binding
Details: displacement of 3H-MCC950; read-out: SPA IC50
readout: IC50

INSERT INTO results (compound, measured_result) VALUES
  ('C[C@@H]1C[C@H](NC(=O)C2(c3ccc(Cl)cc3)CC2)[C@H]2CC[C@@H]1N2c1nnn[nH]1 [80B*]', '10 to 50 µM'),
  ('C[C@H]1CCN(c2nnn[nH]2)C[C@@H](NC(=O)C2(c3ccc(C(F)F)cc3)CC2)C1 (single isomer, unassigned)', '10 to 50 µM'),
  ('C[C@H]1C[C@@H](NC(=O)C2(c3ccc(C4CC4)cc3O)CC2)CN(c2nnn[nH]2)C1 [Compound 23A]', '< 1 µM'),
  ('C[C@@H]1CCN(c2nnn[nH]2)C[C@H](NC(=O)C2(c3ccc(OC(F)(F)F)cc3O)CC2)C1 (single isomer, unassigned) [62A*]', '< 1 µM');

====

Molecular target: human NLRP3 (Homo sapiens (Human), UniProt Q96P20)
Test: Human PBMC NLRP3 Assay (LPS priming, ATP stimulation, cytokine measurement)
Assay type: cell-based
Conditions: PBMC IC50, human PBMC, LPS priming, ATP stimulation
readout: IC50

INSERT INTO measurements (compound, target_desc, measured_result) VALUES
  ('O=C(N[C@@H]1CC[C@H]2CC[C@@H]1N2c1nnn[nH]1)C1(c2ccc(C(F)(F)F)cc2O)CC1 (single isomer, unassigned) [34C*]', 'human NLRP3 (Homo sapiens (Human), UniProt Q96P20)', '10 to 100 nM'),
  ('C[C@@H]1C[C@@H](NC(=O)C2(c3ccc(C4CC4)cc3)CC2)[C@H]2CC[C@@H]1N2c1nnn[nH]1 [81A*]', 'human NLRP3 (Homo sapiens (Human), UniProt Q96P20)', '10 to 100 nM'),
  ('C[C@@H]1C[C@@H](NC(=O)C2(c3ccc(C4CC4)c(F)c3O)CC2)[C@H]2CC[C@@H]1N2c1nnn[nH]1 [83A*]', 'human NLRP3 (Homo sapiens (Human), UniProt Q96P20)', '< 10 nM'),
  ('C[C@@H]1C[C@@H](NC(=O)C2(c3ccc(OC(F)F)cc3)CC2)[C@H]2CC[C@@H]1N2c1nnn[nH]1 (single isomer, unassigned) [35A*]', 'human NLRP3 (Homo sapiens (Human), UniProt Q96P20)', '< 10 nM');

====

Biological target: human NLRP3 (Homo sapiens (Human), UniProt Q96P20)
Experiment: Human PBMC NLRP3 Assay (LPS priming, ATP stimulation, cytokine measurement)
Assay type: cell-based
Conditions: human PBMC, LPS priming, ATP stimulation; read-out: PBMC IC50
Reported IC50 values for the following compounds.
readout: IC50

INSERT INTO measurements (compound, measured_result) VALUES
  ('C[C@H]1CCN(c2nnn[nH]2)C[C@@H]1NC(=O)C1(c2ccc(Cl)cc2)CC1 [Compound 49C]', '100 to 500 nM'),
  ('C[C@H]1C[C@@H](NC(=O)C2(c3ccc(OC(F)F)cc3O)CC2)CN(c2nnn[nH]2)C1 [Compound 19A]', '10 to 100 nM'),
  ('Cc1ccc(C2(C(=O)N[C@@H]3C[C@H](C)CCN(c4nnn[nH]4)C3)CC2)cc1 (single isomer, unassigned) [71A*]', '10 to 100 nM'),
  ('Cc1ccc(C2(C(=O)N[C@@H]3C[C@H](C)CCN(c4nnn[nH]4)C3)CC2)c(O)c1 (single isomer, unassigned) [67A*]', '< 10 nM'),
  ('O=C(NC1CC(C(F)(F)F)CCN(c2nnn[nH]2)C1)C1(c2ccc(Cl)cc2)CC1 (racemic) [Rac-1]', '100 to 500 nM'),
  ('C[C@H]1CCN(c2nnn[nH]2)C[C@@H](NC(=O)C2(c3ccc(OC(F)F)cc3O)CC2)C1 (single isomer, unassigned) [70D*]', '10 to 100 nM'),
  ('C[C@@H]1CCN(c2nnn[nH]2)C[C@H](NC(=O)C2(c3ccc(C(F)F)cc3)CC2)C1 (single isomer, unassigned) [5A*]', '10 to 100 nM');

====

Target: human NLRP3 (Homo sapiens (Human))
Experiment: Scintillation Proximity (SPA) NLRP3 Assay: displacement of 3H-MCC950
Assay type: binding
Details: displacement of 3H-MCC950; read-out: SPA IC50
readout: IC50

INSERT INTO results (compound, target_desc, readout, measured_result) VALUES
  ('C[C@@H]1CCN(c2nnn[nH]2)C[C@@H](NC(=O)C2(c3ccc(OC(F)F)cc3F)CC2)C1 (single isomer, unassigned) [3B*]', 'human NLRP3 (Homo sapiens (Human))', 'IC50', '1 to 10 µM'),
  ('O=C(N[C@H]1C[C@H](C(F)(F)F)[C@H]2CC[C@@H]1N2c1nnn[nH]1)C1(c2ccc(Cl)cc2)CC1 (single isomer, unassigned) [103D*]', 'human NLRP3 (Homo sapiens (Human))', 'IC50', '10 to 50 µM'),
  ('O=C(N[C@@H]1CCCCN(c2nnn[nH]2)C1)C1(c2ccc(Cl)cc2O)CC1 [Compound 52A]', 'human NLRP3 (Homo sapiens (Human))', 'IC50', '< 1 µM'),
  ('CC(C)c1ccc(C2(C(=O)N[C@@H]3C[C@@H](C)CCN(c4nnn[nH]4)C3)CC2)c(O)c1 (single isomer, unassigned) [27C*]', 'human NLRP3 (Homo sapiens (Human))', 'IC50', '50 to 100 µM'),
  ('O=C(N[C@@H]1C[C@H](F)CN(c2nnn[nH]2)C1)C1(c2ccc(Cl)cc2)CC1 [Compound 44A]', 'human NLRP3 (Homo sapiens (Human))', 'IC50', '> 100 µM'),
  ('C[C@@H]1CCN(c2nnn[nH]2)C[C@@H](NC(=O)C2(c3ccc(Br)cc3)CC2)C1 (single isomer, unassigned) [59B*]', 'human NLRP3 (Homo sapiens (Human))', 'IC50', '1 to 10 µM'),
  ('O=C(N[C@H]1CC[C@@H]2CC[C@H]1N2c1nnn[nH]1)C1(c2ccc(Cl)cc2O)CC1 [75B*]', 'human NLRP3 (Homo sapiens (Human))', 'IC50', '1 to 10 µM');

====

Target: human NLRP3 (Homo sapiens (Human))
Assay: Scintillation Proximity (SPA) NLRP3 Assay: displacement of 3H-MCC950
Assay type: binding
Details: displacement of 3H-MCC950; read-out: SPA IC50
pIC50: −log10 of the molar value.
readout: pIC50

INSERT INTO results (compound, measured_result) VALUES
  ('C[C@H]1CCN(c2nnn[nH]2)C[C@@H](NC(=O)C2(c3ccc(C(F)(F)F)c(F)c3O)CC2)C1 (single isomer, unassigned) [31D*]', '5.00 to 6.00'),
  ('C[C@@H]1CCN(c2nnn[nH]2)C[C@@H](NC(=O)C2(c3ccc(C4CCC4)cc3)CC2)C1 (single isomer, unassigned)', '4.30 to 5.00'),
  ('Cc1ccc(C2(C(=O)N[C@H]3C[C@@H](C)CCN(c4nnn[nH]4)C3)CC2)c(O)c1 (single isomer, unassigned) [67D*]', '5.00 to 6.00'),
  ('C[C@@H]1CCN(c2nnn[nH]2)C[C@@H](NC(=O)C2(c3ccc(C(F)F)cc3)CC2)C1 (single isomer, unassigned)', '4.30 to 5.00'),
  ('C[C@H]1C[C@@H](NC(=O)C2(c3ncc(C(F)(F)F)cc3O)CC2)CN(c2nnn[nH]2)C1 [Compound 25A]', '> 6.00'),
  ('C[C@@H]1CCN(c2nnn[nH]2)C[C@@H](NC(=O)C2(c3ccc(C(F)F)cc3O)CC2)C1 (single isomer, unassigned) [30B*]', '> 6.00'),
  ('O=C(N[C@@H]1CC[C@H]2CC[C@@H]1N2c1nnn[nH]1)C1(c2ccc(OC(F)F)cc2O)CC1 [77C*]', '> 6.00');
